# test.summary: Guaiac solubility in solvents / reagent solubility in water
# particulars: noted visually
recorded.metric: GUAIAC SOLUBILITY

1) CCOC(C)=O [Ethyl Acetate]	++
2) CC(C)O	+++
3) CC(Cl)(Cl)Cl	++
4) CC(C)=O	+++
5) ClCCl	++
6) CCCCCCCO	+++
7) OCCO	+++
8) CC(C)c1ccc(CO)cc1	+++
9) CC(C)c1ccccc1	+
10) CCCCCCCC	-
11) COC(=O)CC(C)=O [Methyl-Acetoacetate]	+++
